Quick record: ΔTm, Serine/threonine-protein kinase 26 (Homo sapiens) (UniProt Q9P289).
Respond with the bare value in °C.

Solved cases below.
>>> experimental_result("O=c1c2ccccc2[nH]c(=S)n1CCN1CCC(=C(c2ccc(F)cc2)c2ccc(F)cc2)CC1")
2.1
>>> experimental_result("O=c1c(-c2ccc(O)cc2)coc2cc(O)cc(O)c12")
0.8
>>> experimental_result("CC(C)n1cnc2c(NCc3ccccc3O)nc(NCCCO)nc21")
0.3
>>> experimental_result("Nc1n[nH]c2nnc(-c3c(-c4ccccc4)nn4ccccc34)cc12")
-0.1

Inquiry: Need ΔTm, item CSc1nc(-c2ccc(F)cc2)c(-c2ccnc(NC(C)c3ccccc3)c2)[nH]1 (racemic)
Reply text: -0.1
